System: SN12C
Test: NCI tumour cell line growth inhibition, 48 h
Active and inactive are the calls of the source. Cut-off read from the data, not from the text of the source: active = GI50 up to about 1.1 µM and inactive = higher.
Answer with one of the outcomes given here: active, inactive

Illustrative cases are given below, each with its answer.
Molecule	Target	Group label
COC(=O)C1CC2(CC3=C1CCCC3)OCCO2 (stereo not drawn)	SN12C	inactive
CC1C(=O)C23OC[C@@]1(C)C1(O)CC[C@@H](C)[C@]21CC3=O (stereo partly drawn)	SN12C	inactive
N#Cc1c(N2CCN(c3ccc([N+](=O)[O-])cc3)CC2)[n+]([O-])c2ccccc2[n+]1[O-]	SN12C	inactive

# input for lookup
Please let me know the test result on file for `N#Cc1c(-c2cccc(Cl)c2)cc(-c2ccc(Cl)cc2)nc1N` . inactive

----------
Test system: EKVX
Assay: NCI tumour cell line growth inhibition, 48 h
The source made the active and inactive calls. No stated cut-off is given here; in the data, active = GI50 up to about 1.1 µM and inactive = higher.
compounds and their reported GI50

Recorded GI50, per entry:
Compound	Target	Measurement
CC(C)[C@H]1NC(=O)[C@H]2N=C(O[C@@H]2C)[C@@H]2CCCN2C(=O)[C@H](Cc2ccccc2)NC(=O)[C@@H]2COC(=N2)[C@@H](Cc2ccccc2)NC(=O)[C@@H]2COC1=N2	EKVX	> 100 µM (inactive)
O=C(O)CCSc1ncnc2[nH]cnc12	EKVX	> 100 µM (inactive)
CCCc1c(C(=O)OCC)[nH]c(-c2ccc(-c3[nH]c(C(=O)OCC)c(CCC)c3C(=O)OCC)s2)c1C(=O)OCC	EKVX	62.4 µM (inactive)

State recorded GI50 with EKVX, entry `O=C(c1ccccc1)c1c(C(F)(F)F)[n+]([O-])c2ccccc2[n+]1[O-]` , no comment. 2.17 µM (inactive)

Please report the measured GI50 for `CCOC(=O)c1ccc(N2C(=S)N(C(=O)c3ccccc3)C(=N/c3ccccc3)/C2=N\c2ccccc2)cc1` tested on EKVX. > 100 µM (inactive)

Answer with GI50 of COc1ccc(N2C(=O)CC(Cl)C2=O)cc1 (centres undefined) measured for EKVX. > 100 µM (inactive)

----------
Tested on: SF-268
Experiment: NCI tumour cell line growth inhibition, 48 h
Calls of active or inactive are those of the source. No stated cut-off is given here; in the data, active = GI50 up to about 1.1 µM and inactive = higher.
Choose the fitting class; nothing outside YES = active, NO = inactive is accepted.

Completed entries (count: 2):
Compound	Group label
Cn1c(-c2ccccc2)cc(-c2ccsc2)c1-c1ccsc1	NO
CC1=Nn2c(nnc2-c2ccc(N)cc2)NC(C)(C)C1	NO

What was the test verdict on C1=C2C3=[N+](CCCCC3)CC2Cc2ccsc21 (stereo unspecified) ? NO

Would you mind telling me which call this test gave `CCOC(=O)c1ccc(N2C(=S)N(C(=O)c3ccccc3)C(=N/c3ccccc3)/C2=N\c2ccccc2)cc1` ? NO

What did this assay record as the result for CCN(CC)C(=O)CCCCCCCCC1CO1 (stereo unspecified) ? NO

Could you please tell me the result logged for `Oc1cc(Cl)cc2cc(Cl)cnc12` in this assay? NO

So what was the verdict on `O=C(O)c1ccccc1C(=O)NCC1S(=O)(=O)OCCOS1(=O)=O` in this test? NO

For `CCOC(=O)c1nnc2c(C#N)c(-c3ccccc3)c(C)n2c1N` , which call appears in the assay record? NO

// param item: CC(CN(C)C)C(=O)c1ccccc1C(=O)O (stereo unspecified) ; yields the recorded call NO

Record request — test call for N#CC(NNC(=O)c1ccccc1O)c1ccccc1 (stereo unspecified) YES

Status in this test for COC(=O)C12Oc3ccc(-c4ccc5c(c4O)C(O)=C4C(=O)CC(C)C(O)C4(C(=O)OC)O5)c(O)c3C(O)=C1C(=O)CC(C)C2O (stereo unspecified) ? YES

----------
Measured GI50 accompanies every entry in the list below.
System: SW-620
Experiment: NCI tumour cell line growth inhibition, 48 h
Calls of active or inactive are those of the source. Cut-off read from the data, not from the text of the source: active = GI50 up to about 1.1 µM and inactive = higher.

The following compounds have reported results that may help.
Compound	GI50
Nc1n[n+]([O-])c2cnccc2[n+]1[O-]	38.4 µM (inactive)
NC(CC1=CS(=O)(=O)c2ccc(Cl)cc21)C(=O)O (stereo not given)	> 100 µM (inactive)
O=C1Oc2cc3c(c4cccc1c24)OCN(c1ccc(Cl)cc1)C3	7.4 µM (inactive)
C#CCOC(=O)C(N)CCSC (stereo not given)	> 100 µM (inactive)
COC(=O)C1=C(O)C(C(=O)OC)[C@]2(O)[C@H](C(=O)OC)[C@H]1C[C@@H](c1ccc(OC)cc1)[C@H]2C(=O)OC (stereo not given in full)	17.7 µM (inactive)

In one line, give reported GI50 of the entry `CN(C)c1nc(Oc2nc(N(C)C)nc(N(C)C)n2)nc(N(C)C)n1` . > 100 µM (inactive)

Please report GI50 for the following compound: `Cc1ccc(S(=O)(=O)OC2=C/C(=N\c3onc(C)c3C)c3ccccc3C2=O)cc1` 28.2 µM (inactive)

Report measured GI50; entry is CCOC1OC(CO[Si](C)(C)C(C)(C)C)C(O)CC1n1ccc(=O)[nH]c1=O (stereo not given) 23.2 µM (inactive)

Indicate the recorded GI50 value for this compound: `CCOC(=O)c1ccc(N2C(=S)N(C(=O)c3ccccc3)C(=N/c3ccccc3)/C2=N\c2ccccc2)cc1` > 100 µM (inactive)

Respond only with GI50 recorded for `O=c1c(Sc2c(O)c3ccccc3c3ccccc3c2=O)c(O)c2ccccc2c2ccccc12` 63.8 µM (inactive)

----------
System: SNB-78
Experiment: NCI tumour cell line growth inhibition, 48 h
The source made the active and inactive calls. No stated cut-off is given here; in the data, active = GI50 up to about 1.1 µM and inactive = higher.
Just give me one of these, please: active, inactive

Known results for compounds:
Compound	Group label
C/C(=C\c1ccccc1)C(=O)CCN1CCOCC1	inactive
On1c(-c2ccccc2)c(-c2c(-c3ccccc3)n(O)c3ccccc23)c2ccccc21	inactive
CS(=O)(=O)Sc1ccc(Cl)cc1	active
CN(C)CC/C(=N\Nc1ccc([N+](=O)[O-])cc1)c1ccccc1	inactive
N#CCCN(c1ccc(/C=N/c2cccc([N+](=O)[O-])c2)cc1)S(=O)(=O)c1ccccc1	inactive

Recorded test call requested for `O=C(O)c1cc(S(=O)(=O)N/N=C\c2c3ccccc3[n+]([O-])c3ccccc23)ccc1O` inactive

Hi team, can someone confirm the assay call for `CCN(CC)CCNC(=O)c1nn(C)c(=S)[nH]c1=S` ? inactive

Field: outcome | Entry: `NCc1cc(O)c(O)c(O)c1` inactive

Can you look up the reported call for O=C(/C=C/c1ccccc1)NC1C=Nc2ccc(Cl)cc2NC1=O (stereo unspecified) for me? inactive

// outcome(item) with item = O=C(O)CC(NC(=O)CP(=O)(O)O)C(=O)O (stereo unspecified) inactive

Record request — test call for O=C1C2=C(C(c3ccccc3)=C1c1ccccc1)c1ccccc1C1(c3ccccc3)C2=C(O)C(c2ccccc2)=C1c1ccccc1 (stereo unspecified) inactive

----------
Consider the following molecules and their measured GI50 readings.
System: MDA-MB-231
Assay: NCI tumour cell line growth inhibition, 48 h
Active and inactive are the calls of the source. Cut-off read from the data, not from the text of the source: active = GI50 up to about 1.1 µM and inactive = higher.

These recorded examples may help you get a feel for the data.
Molecule	GI50
Nc1ccc(C(=O)O)cc1.Nc1nc(N)c2nc[nH]c2n1	45.4 µM (inactive)
CC(C)(CCCCC(C)(C)C1NC(=O)N1)C1NC(=O)N1	> 10 µM (inactive)
O=C1c2c(Br)sc(Br)c2[C@@H](Cl)[C@H]1Cl	19.5 µM (inactive)
O=C(O)C1C2C=CC(O2)C1C(=O)Nc1ncccn1 (stereo unspecified)	> 100 µM (inactive)
Cn1c([N+](=O)[O-])cnc1CN1CCN(CCO)CC1	> 100 µM (inactive)

Indicate the recorded GI50 value for this molecule: `N#Cc1ccc(-n2c3ccccc3c3ccc4c(c32)C(=O)C=CC4=O)cc1` 2.51 µM (inactive)

Note down GI50 recorded for `COc1ccc(O[C@H](COCc2ccccc2)C[C@@H]2COC(C)(C)O2)cc1` > 100 µM (inactive)

Give the reported value of GI50 for this record: CCN(CC)C(=O)CCCCCCCCC1CO1 (stereo unspecified) > 100 µM (inactive)

Write down GI50 measured for item `O=C(Cn1nc(Br)c(Br)c1Br)c1ccccc1` 18.9 µM (inactive)

Output measured GI50 for this item: `N#Cc1nc(C#N)c(NC(=O)c2ccccc2C(=O)O)[nH]1` > 100 µM (inactive)

Item CC(=O)OC1C2CCC3C(C)(O)C4CC(O)C(C)(C)C4(O)C(O)CC13CC2(C)O (stereo unspecified) : provide GI50 > 100 µM (inactive)

----------
System: MDA-MB-435
Experiment: NCI tumour cell line growth inhibition, 48 h
Active and inactive are the calls of the source. Rule as the data show it: active = GI50 up to about 1.1 µM and inactive = higher.
Examples of molecules with documented GI50 follow.

Molecule	GI50
CNc1ccc(C)cc1S(=O)(=O)c1ccccc1[N+](=O)[O-]	25.5 µM (inactive)
CC[C@@H]1CN2CCC1C[C@@H]2C(O)c1ccnc2ccc(OCCN3CCN(CCOc4ccc5nccc(C(O)[C@@H]6C[C@@H]7CCN6C[C@@H]7CC)c5c4)CC3)cc12 (some centres undefined)	13.8 µM (inactive)
O=C(O)C1C2C=CC(O2)C1C(=O)Nc1ncccn1 (centres undefined)	> 100 µM (inactive)
O=C(O)[C@@]1(Cc2ccc(O)cc2)C[C@@H]2Cc3ccccc3N2N1	> 100 µM (inactive)
NCC(=O)NC1(c2cc3ccccc3s2)CCCCC1	37.8 µM (inactive)
O=c1[nH]nc(Cc2ccccc2)n1/N=C/c1ccncc1	> 100 µM (inactive)
CC(C)[C@H]1NC(=O)[C@H]2N=C(O[C@@H]2C)[C@@H]2CCCN2C(=O)[C@H](Cc2ccccc2)NC(=O)[C@@H]2COC(=N2)[C@@H](Cc2ccccc2)NC(=O)[C@@H]2COC1=N2	> 100 µM (inactive)
NC1=Nc2ncccc2C(=O)NN1	> 10 µM (inactive)

Let us move to another entry and its GI50.
Dear colleague, please send me the reported GI50 for C=C1CCCCCCCCCCC12SCCC2CCCCSC (centres undefined) when you can. 26.1 µM (inactive)
